Listing of recorded EC50 by entry.
target: hGPR120 (Homo sapiens, UniProt Q5NUL3); assay: Measurement of Activity of GPR120 Agonist (Cell-Based Assay), Calcium 5 dye fluorescence; settings: CHO-K1 cells expressing Ga16 and hGPR120

Given the compound O=C(O)CC1CCN(c2c(F)cc(-c3cc(C(F)(F)F)cc(OC4CCC4)n3)cc2F)CC1 [Example 614] , write its reported EC50.
2000 to 20000 nM

----------
Biological target: hGPR120 (Homo sapiens, UniProt Q5NUL3)
Sequence (Q5NUL3 1-361): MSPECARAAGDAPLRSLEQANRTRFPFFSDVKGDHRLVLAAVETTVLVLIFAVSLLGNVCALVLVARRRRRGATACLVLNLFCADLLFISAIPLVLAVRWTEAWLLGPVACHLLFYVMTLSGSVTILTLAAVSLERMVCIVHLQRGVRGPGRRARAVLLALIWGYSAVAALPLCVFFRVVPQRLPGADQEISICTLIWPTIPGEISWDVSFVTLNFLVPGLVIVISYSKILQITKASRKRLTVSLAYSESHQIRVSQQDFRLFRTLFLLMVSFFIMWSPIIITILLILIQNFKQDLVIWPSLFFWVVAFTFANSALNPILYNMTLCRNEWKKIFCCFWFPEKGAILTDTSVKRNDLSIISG
Assay: Measurement of Activity of GPR120 Agonist (Cell-Based Assay), Calcium 5 dye fluorescence
Details: CHO-K1 cells expressing Ga16 and hGPR120
metricName: EC50

Output EC50 of CC(C)COc1nc(-c2cc(F)c(N3CCC(CC(=O)O)C3)c(F)c2)ncc1F (stereo not drawn)
200 to 2000 nM

Return EC50 for the following molecule: `Cc1cc(-c2cc(F)c(OCCCC(=O)O)c(Cl)c2)nc(OC2CCC2)n1`
< 200 nM

Look up EC50 of CCCSc1ncccc1-c1cc(F)c(C(C)CCCC(=O)O)c(F)c1 (stereo not drawn) and report it.
< 200 nM

For the molecule CC(CCCC(=O)O)c1c(F)cc(-c2cccc(OC3CCC3)c2)cc1F (stereo not drawn) , give its measured EC50 value.
< 200 nM

Identify measured EC50 corresponding to CC(CCCC(=O)O)c1ccc(-c2cccnc2SC2CCC2)cc1 (stereo not drawn)
< 200 nM

Return the recorded EC50 value; entry: `CC(C)Cc1ccnc(-c2cc(F)c(N3CCC(CC(=O)O)CC3)c(F)c2)n1`
200 to 2000 nM

Specify measured EC50 for `CC(C)Oc1cccc(-c2cc(F)c(OCCCC(=O)O)c(F)c2)c1` .
< 200 nM

Please look at this molecule and report its EC50: `CN(Cc1cc(O)no1)c1ccc(-c2cccnc2OC2CCCC2)cc1`
< 200 nM

Using known records, supply EC50 for O=C(O)CCC1CC1c1c(F)cc(-c2cccc(OC3CCC3)n2)cc1F (stereo not drawn)
< 200 nM

----------
Target: hGPR120 (Homo sapiens, UniProt Q5NUL3)
Sequence (Q5NUL3 1-361): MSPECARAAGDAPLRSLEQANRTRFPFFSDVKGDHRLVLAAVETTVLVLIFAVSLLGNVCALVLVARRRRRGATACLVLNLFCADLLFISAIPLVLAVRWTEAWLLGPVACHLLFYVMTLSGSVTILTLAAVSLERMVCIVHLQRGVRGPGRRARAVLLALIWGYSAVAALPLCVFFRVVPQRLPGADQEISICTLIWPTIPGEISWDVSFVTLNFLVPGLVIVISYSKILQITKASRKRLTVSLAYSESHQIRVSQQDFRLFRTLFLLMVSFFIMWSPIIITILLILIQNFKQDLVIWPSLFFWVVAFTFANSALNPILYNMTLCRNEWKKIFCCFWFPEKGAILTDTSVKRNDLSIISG
Assay: Measurement of Activity of GPR120 Agonist (Cell-Based Assay), Calcium 5 dye fluorescence
Conditions: CHO-K1 cells expressing Ga16 and hGPR120
pEC50: −log10 of the molar value.
Each entry below carries its recorded pEC50.

Completed entries (count: 2):
[[record]]
compound = "O=C(O)CCCC1(c2c(F)cc(-c3cccc(OC4CCC4)n3)cc2F)CC1"
metricname = "pEC50"
result = "> 6.70"

[[record]]
compound = "O=C(O)C1CC1COc1c(F)cc(-c2cccc(OCC3CC3)n2)cc1F (centres unmarked)"
metricname = "pEC50"
result = "> 6.70"


// Input: `O=C(O)CCCOc1c(F)cc(-c2ccc(Cl)c(OCC3CC3)c2)cc1F` . Output its pEC50 only.
5.70 to 6.70

Look up and report measured pEC50 for this entry: `O=C(O)CCCCc1c(F)cc(-c2cccnc2SC2CCC2)cc1F`
> 6.70

Quickly give me recorded pEC50 for O=C(O)CC1CCN(c2c(F)cc(-c3cncc(OC4CCCC4)n3)cc2F)C1 (centres unmarked)
5.70 to 6.70

Where do the numbers come from? From patent US11261186B2.
